Test system: L1210
Experiment: Antitumor activity in mouse L1210 cells allografted in mouse assessed as increase in survival time at optimal dose administered qd on days 1 to 5 of challenge relative to control
Assay type: functional
OBSERVATION TYPE: T/C (%)
Reply numerically in %, unit not repeated.

Nc1nc2c(ncn2[C@@H]2C[C@H](O)[C@@H](CO)O2)c(=S)[nH]1 = 161
CC(=O)OC[C@H]1O[C@@H](n2cnc3c(=S)[nH]c(N)nc32)C[C@@H]1OC(C)=O = 156

Bench note: what T/C did Nc1nc(SCc2ccccc2)c2ncn([C@@H]3C[C@H](O)[C@@H](CO)O3)c2n1 show? 144

Try this molecule next: Cn1cnc([N+](=O)[O-])c1Sc1nc(N)nc2c1ncn2[C@H]1C[C@H](O)[C@@H](CO)O1 173

Try this molecule next: CSc1nc(N)nc2c1ncn2[C@H]1C[C@H](O)[C@@H](CO)O1 128

Try this molecule next: Cc1cccc(CSc2nc(N)nc3c2ncn3[C@H]2C[C@H](O)[C@@H](CO)O2)n1 153

Try this molecule next: Nc1nc2c(ncn2[C@H]2C[C@H](O)[C@@H](CO)O2)c(=S)[nH]1 219

Try this molecule next: C=CCSc1nc(N)nc2c1ncn2[C@H]1C[C@H](O)[C@@H](CO)O1 179

Try this molecule next: Cn1cnc([N+](=O)[O-])c1Sc1nc(N)nc2c1ncn2[C@@H]1C[C@H](O)[C@@H](CO)O1 137

###

Test system: L1210
Test: Inhibition of RNA synthesis in mouse L1210 cells assessed as inhibition of tritiated uridine incorporation into nucleic acids
Type: functional
Conditions: read-out: ED50 (the source's name)
Recorded measurements of EC50, one per entry

Use the examples below as a reference point.
Nc1nc2c(ncn2[C@H]2C[C@H](O)[C@@H](CO)O2)c(=S)[nH]1 = 50 µM
C=CCSc1nc(N)nc2c1ncn2[C@@H]1C[C@H](O)[C@@H](CO)O1 = > 100 µM
C=CCSc1nc(N)nc2c1ncn2[C@H]1C[C@H](O)[C@@H](CO)O1 = 3 µM
Cc1cccc(CSc2nc(N)nc3c2ncn3[C@@H]2C[C@H](O)[C@@H](CO)O2)n1 = 72 µM
Nc1nc2c(ncn2[C@@H]2C[C@H](O)[C@@H](CO)O2)c(=S)[nH]1 = > 100 µM

Quick check: EC50 on L1210, item Cc1cccc(CSc2nc(N)nc3c2ncn3[C@H]2C[C@H](O)[C@@H](CO)O2)n1 ? 31 µM

Try this compound next: CSc1nc(N)nc2c1ncn2[C@H]1C[C@H](O)[C@@H](CO)O1 24 µM

Try this compound next: Cn1cnc([N+](=O)[O-])c1Sc1nc(N)nc2c1ncn2[C@H]1C[C@H](O)[C@@H](CO)O1 11 µM

Try this compound next: Cn1cnc([N+](=O)[O-])c1Sc1nc(N)nc2c1ncn2[C@@H]1C[C@H](O)[C@@H](CO)O1 > 100 µM

Try this compound next: CSc1nc(N)nc2c1ncn2[C@@H]1C[C@H](O)[C@@H](CO)O1 > 100 µM

###

Organism: Mus musculus
Assay: Acute toxicity in mouse
Type: organism-based
Details: in vivo
OBSERVATION TYPE: Activity

Use the examples below as a reference point.
Nc1nc(SCc2ccccc2)c2ncn([C@@H]3C[C@H](O)[C@@H](CO)O3)c2n1 = Non-toxic
CSc1nc(N)nc2c1ncn2[C@@H]1C[C@H](O)[C@@H](CO)O1 = Non-toxic
Nc1nc(SCc2ccccc2)c2ncn([C@H]3C[C@H](O)[C@@H](CO)O3)c2n1 = Non-toxic
C=CCSc1nc(N)nc2c1ncn2[C@@H]1C[C@H](O)[C@@H](CO)O1 = Non-toxic
CSc1nc(N)nc2c1ncn2[C@H]1C[C@H](O)[C@@H](CO)O1 = Non-toxic
C=CCSc1nc(N)nc2c1ncn2[C@H]1C[C@H](O)[C@@H](CO)O1 = Non-toxic
CSc1nc(NC(C)=O)nc2c1ncn2[C@H]1C[C@H](O)[C@@H](CO)O1 = Non-toxic
Cc1cccc(CSc2nc(N)nc3c2ncn3[C@@H]2C[C@H](O)[C@@H](CO)O2)n1 = Non-toxic
Cn1cnc([N+](=O)[O-])c1Sc1nc(N)nc2c1ncn2[C@H]1C[C@H](O)[C@@H](CO)O1 = Non-toxic
Cc1cccc(CSc2nc(N)nc3c2ncn3[C@H]2C[C@H](O)[C@@H](CO)O2)n1 = Non-toxic

Would you kindly look at the next entry?
Bench note: what Activity did Cn1cnc([N+](=O)[O-])c1Sc1nc(N)nc2c1ncn2[C@@H]1C[C@H](O)[C@@H](CO)O1 show? Non-toxic
